Tested on: male C57BL/6 mice
Assay: Inhibition of icilin induced jumping in mice
Format: in vivo
Settings: dose 10 mg/kg, given 1 hour before icilin (i.p. 20 mg/kg); jumps counted 10 minutes post-icilin
Could you please report measured % Inhibition of Mouse Jumping for the items listed next?
Give the quantity in %, number only.

Recorded % Inhibition of Mouse Jumping of O=C(Nc1cccnc1)N[C@@H](c1ccc(C(F)(F)F)c(F)c1)c1ncccc1F , please.
96

I'd like to know its % Inhibition of Mouse Jumping. The compound in question is CC1(C)C[C@H]1c1cccnc1[C@@H](NC(=O)Nc1cccnc1)c1ccc(C(F)(F)F)cc1
90

Any idea what % Inhibition of Mouse Jumping was measured for O=C(Nc1cccnc1)N[C@@H](c1ccc(C(F)(F)F)cc1)c1ncccc1C(F)(F)F ?
74

Record request: % Inhibition of Mouse Jumping value, item O=C(Nc1cccnc1)N[C@@H](c1ccc(C(F)(F)F)c(F)c1)c1ncccc1C(F)(F)F [Example 1, bis(2,2,2-trifluoroacetate)]
75

For the compound shown here, CC#Cc1cccnc1[C@@H](NC(=O)Nc1cccnc1)c1ccc(C(F)(F)F)cc1 , give the reported % Inhibition of Mouse Jumping.
76

Data provenance: patent US8778941B2
